testSystem: TYK2 (Homo sapiens)
Sequence (P29597 whole entry): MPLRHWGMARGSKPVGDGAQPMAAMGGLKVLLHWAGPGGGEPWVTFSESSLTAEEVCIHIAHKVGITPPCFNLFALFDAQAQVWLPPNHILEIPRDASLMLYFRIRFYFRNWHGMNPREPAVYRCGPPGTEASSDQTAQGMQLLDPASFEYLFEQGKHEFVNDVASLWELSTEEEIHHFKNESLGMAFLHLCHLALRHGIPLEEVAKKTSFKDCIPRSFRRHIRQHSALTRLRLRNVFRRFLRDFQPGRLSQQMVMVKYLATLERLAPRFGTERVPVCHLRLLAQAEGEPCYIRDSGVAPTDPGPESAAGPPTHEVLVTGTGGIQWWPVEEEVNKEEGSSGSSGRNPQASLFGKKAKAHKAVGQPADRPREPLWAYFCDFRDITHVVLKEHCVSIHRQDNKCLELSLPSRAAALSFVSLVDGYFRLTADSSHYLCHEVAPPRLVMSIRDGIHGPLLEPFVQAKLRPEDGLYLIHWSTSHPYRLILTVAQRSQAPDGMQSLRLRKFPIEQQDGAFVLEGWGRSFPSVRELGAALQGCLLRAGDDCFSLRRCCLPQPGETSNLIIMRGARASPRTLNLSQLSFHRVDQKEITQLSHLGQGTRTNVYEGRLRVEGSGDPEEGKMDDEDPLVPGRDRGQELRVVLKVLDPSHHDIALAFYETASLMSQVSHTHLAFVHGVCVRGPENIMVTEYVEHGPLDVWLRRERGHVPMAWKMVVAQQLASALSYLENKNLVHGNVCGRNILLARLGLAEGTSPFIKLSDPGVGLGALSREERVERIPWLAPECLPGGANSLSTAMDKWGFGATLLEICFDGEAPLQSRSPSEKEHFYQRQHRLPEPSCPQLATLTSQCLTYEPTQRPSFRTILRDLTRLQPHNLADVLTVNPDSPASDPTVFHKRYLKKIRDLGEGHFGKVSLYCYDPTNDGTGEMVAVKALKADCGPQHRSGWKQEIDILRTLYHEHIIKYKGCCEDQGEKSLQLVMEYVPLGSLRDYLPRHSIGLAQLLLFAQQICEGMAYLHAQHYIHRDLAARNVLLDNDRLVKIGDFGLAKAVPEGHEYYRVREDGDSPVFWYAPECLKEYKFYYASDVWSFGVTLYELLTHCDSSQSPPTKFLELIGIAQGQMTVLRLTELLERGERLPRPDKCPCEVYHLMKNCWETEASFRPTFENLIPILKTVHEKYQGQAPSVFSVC
procedureDetails: TYK2 biochemical test (33P-ATP filter binding kinase assay)
runParameters: room temperature, 2 hours
pIC50: −log10 of the molar value.
parameter: pIC50

// known answers, use as guide
[
  {
    "molecule": "CCS(=O)(=O)N1CC(CC#N)(n2cc(-c3nc(Nc4cnn(C)c4)ncc3C3CC3)cn2)C1",
    "testSystem": "TYK2 (Homo sapiens)",
    "pIC50": "> 9.00"
  },
  {
    "molecule": "Cc1cnc(Nc2cnn(CC3COC3)c2)nc1-c1cnn([C@H](CC#N)C2CCCC2)c1",
    "testSystem": "TYK2 (Homo sapiens)",
    "pIC50": "> 9.00"
  },
  {
    "molecule": "CCS(=O)(=O)N1CC(CC#N)(n2cc(-c3nc(Nc4cnn(C)c4)ncc3C)cn2)C1",
    "testSystem": "TYK2 (Homo sapiens)",
    "pIC50": "> 9.00"
  },
  {
    "molecule": "Cc1cnc(Nc2cnn(C)c2)nc1-c1cnn([C@H](CC#N)C2CCCC2)c1",
    "testSystem": "TYK2 (Homo sapiens)",
    "pIC50": "> 9.00"
  },
  {
    "molecule": "CNS(=O)(=O)C[C@H]1CC[C@H](N(C)c2nc(Nc3cnn(C)c3)ncc2C)CC1 [Compound 21, reference compound]",
    "testSystem": "TYK2 (Homo sapiens)",
    "pIC50": "< 7.00"
  }
]

Please report pIC50 for every entry that follows.
1. CCS(=O)(=O)N1CC(CC#N)(n2cc(-c3nc(Nc4cn(C)nn4)ncc3C)cn2)C1 [Compound 19, reference compound]
2. Cc1cnc(Nc2cnn(CCO)c2)nc1-c1cnn([C@H](CC#N)C2CCCC2)c1
3. Cc1cnc(Nc2ccc3ncn(C)c3c2)nc1-c1cnn([C@H](CC#N)C2CCCC2)c1
4. Cc1cnc(Nc2cnn(C)c2)nc1N(C)[C@H]1CN(C(=O)CC#N)CC[C@H]1C [Compound 22, reference compound]

["< 8.00", "> 9.00", "> 9.00", "< 7.00"]
